Quick reference: EC50 of the listed items.
# targetDesc: human M1 (Homo sapiens, UniProt P11229)
# Construct: expressed in transfected cells; host or cells: CHO cells
# Sequence (P11229 whole entry): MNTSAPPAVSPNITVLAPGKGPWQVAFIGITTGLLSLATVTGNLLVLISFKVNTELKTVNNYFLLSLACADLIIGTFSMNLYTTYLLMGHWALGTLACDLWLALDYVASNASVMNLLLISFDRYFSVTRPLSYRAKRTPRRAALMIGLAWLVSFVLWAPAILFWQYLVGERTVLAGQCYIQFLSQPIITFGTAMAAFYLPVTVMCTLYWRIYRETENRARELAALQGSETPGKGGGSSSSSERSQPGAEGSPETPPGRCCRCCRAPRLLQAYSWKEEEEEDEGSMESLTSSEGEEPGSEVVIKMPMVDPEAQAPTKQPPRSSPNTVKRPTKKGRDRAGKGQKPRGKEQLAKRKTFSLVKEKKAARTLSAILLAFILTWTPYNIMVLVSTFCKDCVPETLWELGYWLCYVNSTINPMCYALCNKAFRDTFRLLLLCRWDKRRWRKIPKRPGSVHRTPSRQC
# experiment: M1 PAM assay (FLIPR intracellular calcium, CHO human M1)
# Assay type: cell-based
# studyConditions: human M1 in CHO cells; modulator activity with EC20 of acetylcholine; FLIPR Ca2+; read-out: EC50 h PAM
# number only, unit nM dropped from output

Solved cases below.
molecule | targetDesc | EC50, nM
CCC(O)CNC(=O)c1cn(Cc2ccc(-c3cnn(C)c3)cc2F)c2cccnc12 (stereo not shown) | human M1 (Homo sapiens, UniProt P11229) | 100
Cn1cc(-c2ccc(Cn3cc(C(=O)N[C@H]4COCC[C@@H]4O)c4ncccc43)c(F)c2)cn1 | human M1 (Homo sapiens, UniProt P11229) | 30.4
Cn1cc(-c2ccc(Cn3cc(C(=O)NCC4(O)CCCC4)c4ncccc43)c(F)c2)cn1 | human M1 (Homo sapiens, UniProt P11229) | 193
Cn1cc(-c2ccc(Cn3cc(C(=O)NC[C@@H](O)c4ccccc4)c4ncccc43)c(F)c2)cn1 | human M1 (Homo sapiens, UniProt P11229) | 120
Cn1cc(-c2ccc(Cn3cc(C(=O)NC[C@@H](O)CO)c4ncccc43)c(F)c2)cn1 | human M1 (Homo sapiens, UniProt P11229) | 333

Need EC50 of "Cn1cc(-c2ccc(Cn3cc(C(=O)Nc4ncccc4O)c4ncccc43)c(F)c2)cn1" , thanks.
109

Need EC50 of "Cc1cccnc1NC(=O)c1cn(Cc2ccc(-c3cnn(C)c3)cc2F)c2cccnc12" , thanks.
320
